Entries and their minimal effective dose
Tested on: diastolic blood pressure
PROTOCOL_DESCRIPTION: Hypotensive activity in anesthetized rats
Format: in vivo, rat (male Wistar strain)
MEASUREMENT_SETUP: Rattus norvegicus; intravenous; dose producing a decrease of about 10 mm. in diastolic blood pressure

These solved cases illustrate the format of a correct answer.
- COMPOUND: "CCCCC(C)(C)C(O)/C=C/[C@H]1CCC(=O)[C@@H]1CCCCOCC(=O)O (relative stereo)"
  RESULT_VALUE: "< 2 mg/kg"
- COMPOUND: "CCCCC[C@@H](O)/C=C/[C@H]1CCC(=O)[C@@H]1CCCCOCC(=O)O (relative stereo)"
  RESULT_VALUE: "1 to 2 mg/kg"
- COMPOUND: "CCCCCC(O)/C=C/[C@H]1CCC(=O)[C@@H]1CCCCOCC(=O)OCC (relative stereo)"
  RESULT_VALUE: "0.2 mg/kg"

Now for another entry.
Task item: Need minimal effective dose of CCCCCC(O)/C=C/[C@H]1CCC(=O)[C@@H]1CCCCCC(CC)C(=O)O (stereo partly shown) , thanks.
Reply: < 2 mg/kg

====

Test system: diastolic blood pressure
PROTOCOL_DESCRIPTION: Hypotensive activity in anesthetized rats
Type: in vivo, rat (male Wistar strain)
MEASUREMENT_SETUP: Rattus norvegicus; intravenous; dose producing a decrease of about 10 mm. in diastolic blood pressure
ASSAY_ENDPOINT: minimal effective dose

Check out these entries, answers already filled in.
- MOLECULE: "CCCCCC(O)/C=C\\[C@H]1CCC(=O)[C@@H]1CCCCCCC(=O)O (relative stereo) [9-oxo-15-hydroxy-13-cis-prostenoic acid, 15-hydroxy-9-oxo-13-cis-prostenoic acid]"
  TARGET_DESC: "diastolic blood pressure"
  minimal effective dose: "2 to 4 mg/kg"
- MOLECULE: "CCCCC[C@@H](O)/C=C/[C@H]1CCC(=O)[C@@H]1CCCCCC(CC)C(=O)O (relative stereo)"
  TARGET_DESC: "diastolic blood pressure"
  minimal effective dose: "2 to 4 mg/kg"

Proceeding to the next molecule to report its minimal effective dose.
Task item: Item CCCCC[C@@H](O)/C=C/[C@H]1CCC(=O)[C@@H]1CCCCCC(C(=O)O)c1ccccc1 (relative stereo) has what recorded minimal effective dose?
Reply: 2 to 8 mg/kg
